Answer each item with its documented Ki.
EXPERIMENTAL SYSTEM: α1B Human Adrenergic Receptor (Homo sapiens, UniProt P35368)
Construct: The entire coding region of α1B (1563 bp); expressed in transfected cells
Sequence (P35368 whole entry): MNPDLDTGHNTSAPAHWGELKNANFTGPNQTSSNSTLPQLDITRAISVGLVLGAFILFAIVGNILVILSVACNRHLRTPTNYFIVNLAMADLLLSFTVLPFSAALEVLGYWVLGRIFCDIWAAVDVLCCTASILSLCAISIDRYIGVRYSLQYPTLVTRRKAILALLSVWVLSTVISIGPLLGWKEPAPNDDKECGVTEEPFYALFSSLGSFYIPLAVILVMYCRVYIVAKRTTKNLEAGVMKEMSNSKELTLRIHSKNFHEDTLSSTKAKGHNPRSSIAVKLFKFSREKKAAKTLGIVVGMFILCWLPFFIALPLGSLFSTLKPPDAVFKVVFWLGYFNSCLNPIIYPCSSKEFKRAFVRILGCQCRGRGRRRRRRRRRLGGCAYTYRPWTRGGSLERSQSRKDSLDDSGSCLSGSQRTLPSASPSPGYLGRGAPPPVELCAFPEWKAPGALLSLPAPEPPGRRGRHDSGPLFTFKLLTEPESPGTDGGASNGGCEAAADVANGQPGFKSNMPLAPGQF
PROCEDURE DETAILS: Radioligand binding, [3H]prazosin, cloned human α1B adrenergic receptor
TEST CONTEXT: pKi alpha-1 1b, cloned human receptor in LM(tk-) cell membranes, SEM and n in lines below
Could you give me the number in nM? Just the number is fine.

[in] Can you look up the measured Ki of COC(=O)C1=C(C)NC(C)=C(C(=O)NCCCN2CCC(c3ccccc3)(c3ccccc3)CC2)C1Cc1ccccc1 (stereo not drawn) for me?
[out] 186

[in] How about CCC1=C(C(N)=O)C(c2ccc([N+](=O)[O-])cc2)C(C(=O)NCCCN2CCC(c3ccccc3)(c3ccccc3)CC2)=C(C)N1 (stereo not drawn) ?
[out] 295

[in] How about CCC1=C(C(N)=O)C(c2ccc([N+](=O)[O-])cc2)C(C(=O)NCCCN2CCC(c3ccccc3)(c3ccccc3)CC2)=C(CC)N1 (stereo not drawn) ?
[out] 282

* * *

EXPERIMENTAL SYSTEM: α1C Human Adrenergic Receptor (Homo sapiens, UniProt P35348)
Construct: The entire coding region of α1C (1401 bp); expressed in transfected cells
Sequence (P35348 1-466): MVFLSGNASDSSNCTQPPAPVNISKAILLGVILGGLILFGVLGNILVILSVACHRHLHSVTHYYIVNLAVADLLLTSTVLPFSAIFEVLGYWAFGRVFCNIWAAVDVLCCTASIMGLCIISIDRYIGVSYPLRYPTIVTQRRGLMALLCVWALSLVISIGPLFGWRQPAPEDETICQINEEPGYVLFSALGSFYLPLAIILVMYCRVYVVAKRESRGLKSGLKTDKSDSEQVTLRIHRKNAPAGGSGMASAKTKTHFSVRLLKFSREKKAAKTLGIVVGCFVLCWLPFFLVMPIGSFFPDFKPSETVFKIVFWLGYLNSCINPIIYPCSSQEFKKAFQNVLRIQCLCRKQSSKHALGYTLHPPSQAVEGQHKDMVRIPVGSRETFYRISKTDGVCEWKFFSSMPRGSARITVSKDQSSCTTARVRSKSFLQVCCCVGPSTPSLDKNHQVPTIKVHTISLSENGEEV
PROCEDURE DETAILS: Radioligand binding, [3H]prazosin, cloned human α1C adrenergic receptor
TEST CONTEXT: PKi alpha-1 1c, cloned human α1C receptor, LM(tk-) cell membranes
MEASUREMENT LABEL: Ki (nM)
Could you give me the number in nM? Just the number is fine.

[in] Can you look up the measured Ki of CC(=O)C1=C(C)NC(COCCN)=C(C(=O)NCCCN2CCC(c3ccccc3)(c3ccccc3)CC2)C1c1ccc(F)cc1 (stereo not shown) for me?
[out] 3.98

[in] How about CC(=O)C1=C(C)NC(COCCN)=C(C(=O)NCCCN2CCC(c3ccccc3)(c3ccccc3)CC2)C1c1ccc2c(c1)OCO2 (stereo not shown) ?
[out] 2.04

[in] How about CCC1=C(C(=O)OCCO)C(c2ccc([N+](=O)[O-])cc2)C(C(=O)NCCCN2CCC(c3ccccc3)(c3ccccc3)CC2)=C(COC)N1 (stereo not shown) ?
[out] 2.75

[in] How about CCC1=C(C(=O)NCCOC)C(c2ccc([N+](=O)[O-])cc2)C(C(=O)NCCCN2CCC(c3ccccc3)(c3ccccc3)CC2)=C(COC)N1 (stereo not shown) ?
[out] 24.5

* * *

EXPERIMENTAL SYSTEM: α2C receptor (Homo sapiens, UniProt P18825)
Construct: host or cells: LM(tk-) cells, line L-α2C
Sequence (P18825 whole entry): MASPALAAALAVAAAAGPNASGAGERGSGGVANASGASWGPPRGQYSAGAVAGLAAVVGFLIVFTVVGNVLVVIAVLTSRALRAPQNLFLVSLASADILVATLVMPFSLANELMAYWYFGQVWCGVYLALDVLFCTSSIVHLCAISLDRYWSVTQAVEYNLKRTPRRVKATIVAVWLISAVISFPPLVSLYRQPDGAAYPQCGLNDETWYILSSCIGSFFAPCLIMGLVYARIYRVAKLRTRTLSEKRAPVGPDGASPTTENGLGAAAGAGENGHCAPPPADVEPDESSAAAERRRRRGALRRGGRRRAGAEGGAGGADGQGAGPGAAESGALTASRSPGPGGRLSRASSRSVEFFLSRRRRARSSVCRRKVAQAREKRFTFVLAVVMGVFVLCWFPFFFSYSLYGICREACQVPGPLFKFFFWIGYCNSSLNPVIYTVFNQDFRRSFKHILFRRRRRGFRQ
PROCEDURE DETAILS: Competition binding, [3H]rauwolscine, human α2C receptor
TEST CONTEXT: pKi alpha-2 2c
Counter-ions that a name gives are not always drawn.
Answer each item with its documented Ki.
Could you give me the number in nM? Just the number is fine.

[in] Can you look up the measured Ki of COC(=O)C1=C(C)NC(C)=C(C(=O)NCCCN2CCC(c3ccccc3)(c3ccccc3)CC2)C1C1CCCCC1 (stereo not drawn) for me?
[out] 240

[in] How about COC(=O)C1=C(C)NC(C)=C(C(=O)NCCCN2CCC(c3ccccc3)(c3ccccc3)CC2)C1c1ccc(OC)c(OC)c1 (stereo not drawn) ?
[out] 1480

[in] How about CCC1=C(C(N)=O)C(c2ccc([N+](=O)[O-])cc2)C(C(=O)NCCCN2CCC3(CC2)C(=O)NCN3c2ccccc2)=C(CC)N1 (stereo not drawn) [Example 105, hydrochloride hydrate] ?
[out] 1380

[in] How about COC(=O)C1=C(C)NC(C)=C(C(=O)NCCCN2CCC(c3ccccc3)(c3ccccc3)CC2)C1c1ccc(C(C)C)cc1 (stereo not drawn) ?
[out] 933

[in] How about COC(=O)C1=C(C)NC(C)=C(C(=O)NCCCN2CCC(c3ccccc3)(c3ccccc3)CC2)C1c1ccc(C(F)(F)F)cc1 (stereo not drawn) ?
[out] 170

[in] How about CC1=C(C#N)C(c2ccc([N+](=O)[O-])cc2)C(C(=O)NCCCN2CCC(c3ccccc3)(c3ccccc3)CC2)=C(C)N1 (stereo not drawn) ?
[out] 575

* * *

EXPERIMENTAL SYSTEM: α1A Human Adrenergic Receptor (Homo sapiens, UniProt P25100)
Construct: The entire coding region of α1A (1719 bp); expressed in transfected cells
Sequence (P25100 whole entry): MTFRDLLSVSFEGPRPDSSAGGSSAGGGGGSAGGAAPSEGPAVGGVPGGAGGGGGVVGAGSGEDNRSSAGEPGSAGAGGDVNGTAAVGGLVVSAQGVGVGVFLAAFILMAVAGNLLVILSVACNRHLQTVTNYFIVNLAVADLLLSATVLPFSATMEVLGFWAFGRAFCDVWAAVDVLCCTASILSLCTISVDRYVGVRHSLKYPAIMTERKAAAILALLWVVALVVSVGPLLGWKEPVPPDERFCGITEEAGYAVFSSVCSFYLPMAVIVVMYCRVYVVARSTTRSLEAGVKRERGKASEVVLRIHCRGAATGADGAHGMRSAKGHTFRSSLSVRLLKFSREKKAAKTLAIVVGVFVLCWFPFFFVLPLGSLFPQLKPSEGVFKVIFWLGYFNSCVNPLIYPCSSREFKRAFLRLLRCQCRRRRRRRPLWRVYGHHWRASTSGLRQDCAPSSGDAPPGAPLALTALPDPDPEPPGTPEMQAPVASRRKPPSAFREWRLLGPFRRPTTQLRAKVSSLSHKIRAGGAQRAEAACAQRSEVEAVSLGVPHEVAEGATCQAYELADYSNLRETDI
PROCEDURE DETAILS: Radioligand binding, [3H]prazosin, cloned human α1A adrenergic receptor
TEST CONTEXT: [3H]prazosin, cloned human α1A receptor, LM(tk−) cell membranes; read-out: pKi alpha-1 1a (converted)
Field: label. Allowed values: Met (Ki < 2000 nM) or Not met (Ki >= 2000 nM).

[in] Strictly below 2000 nM in Ki? CCC1=C(C(=O)NCCCN2CCC(c3ccccc3)(c3ccccc3)CC2)C(c2ccc([N+](=O)[O-])cc2)C(C(=O)OC(C)(C)C)=C(COCCN)N1 (centres unmarked)
[out] Not met

[in] How about CCC1=C(C(=O)NC)C(c2ccc([N+](=O)[O-])cc2)C(C(=O)NCCCN2CCC(c3ccccc3)(c3ccc(OC)cc3)CC2)=C(CC)N1 (centres unmarked) ?
[out] Met

[in] How about CCC1=C(C(=O)NC)C(c2ccc([N+](=O)[O-])cc2)C(C(=O)NCCCN2CCC(OC)(c3ccccc3)CC2)=C(CC)N1 (centres unmarked) ?
[out] Not met

[in] How about CCC1=C(C(=O)O)C(c2ccc([N+](=O)[O-])cc2)C(C(=O)NCCCN2CCC(c3ccccc3)(c3ccccc3)CC2)=C(CC)N1 (centres unmarked) ?
[out] Met

[in] How about CC1=C(C(=O)O)C(c2ccc([N+](=O)[O-])cc2)C(C(=O)NCCCN2CCC(c3ccccc3)(c3ccccc3)CC2)=C(COCCN=[N+]=[N-])N1 (centres unmarked) ?
[out] Met

* * *

EXPERIMENTAL SYSTEM: α1B Human Adrenergic Receptor (Homo sapiens, UniProt P35368)
Construct: The entire coding region of α1B (1563 bp); expressed in transfected cells
PROCEDURE DETAILS: Radioligand binding, [3H]prazosin, cloned human α1B adrenergic receptor
TEST CONTEXT: cloned human receptor in LM(tk-) cell membranes, SEM and n in lines below, read-out: pKi alpha-1 1b (converted)
Structures can show the parent of a compound that is named as a salt.
Answer each item with its documented Ki.
Could you give me the number in nM? Just the number is fine.

[in] Can you look up the measured Ki of CC1=C(C(=O)NCCCN2CCC(c3ccccc3)CC2)C(c2ccc([N+](=O)[O-])cc2)c2c([nH]c(=O)[nH]c2=O)N1 (stereo not drawn) [Example 63] for me?
[out] 18.6

[in] How about COC(=O)C1=C(C)NC(C)=C(C(=O)NCCCN2CCC(c3ccccc3)(c3ccccc3)CC2)C1c1ccc(C(F)(F)F)cc1 (stereo not drawn) [Example 1] ?
[out] 407

[in] How about COC(=O)C1=C(C)NC(C)=C(C(=O)OCCCN2CCC(c3ccccc3)CC2)C1c1ccc([N+](=O)[O-])cc1 (stereo not drawn) [Example 48, hydrochloride hydrate] ?
[out] 2.63

[in] How about COC(=O)C1=C(C)NC(C)=C(C(=O)N(C)CCCN2CCC(c3ccccc3)(c3ccccc3)CC2)C1c1ccc([N+](=O)[O-])cc1 (stereo not drawn) [Example 46, hydrochloride hemihydrate] ?
[out] 240

[in] How about CC1=C(C#N)C(c2ccc([N+](=O)[O-])cc2)C(C(=O)NCCCN2CCC(c3ccccc3)(c3ccccc3)CC2)=C(C)N1 (stereo not drawn) [Example 37] ?
[out] 200

[in] How about COC(=O)C1=C(C)NC(C)=C(C(=O)NCCCN2CCC(c3ccccc3)(c3ccccc3)CC2)C1c1ccc2ccccc2c1 (stereo not drawn) [Example 22] ?
[out] 138
